System: clinical strains of E. cloacae
Test: MIC, microdilution, clinical strains
Assay type: cell-based
Settings: Enterobacter cloacae strain 3, Muller Hinton broth-cation adjusted, 0.02% BSA, 0.2% acetic acid
Where a SMILES comes first, the peptide text is derived from it. [ ]: non-standard residue; d: D form.
Label rule, in plain words: Minimum inhibitory concentration of 8 and up is yes (1), under 8 is no (0).

Example results:
CC(C)C[C@@H](NC(=O)[C@H](N)CCCNC(=N)N)C(=O)N[C@H](CCCCN)C(=O)N[C@H](Cc1c[nH]c2ccccc12)C(=O)N[C@H](Cc1ccccc1)C(=O)N[C@H](Cc1c[nH]c2ccccc12)C(=O)N[C@H](CC(C)C)C(=O)N[C@H](Cc1ccccc1)C(=O)N[C@H](CCCNC(=N)N)C(=O)N[C@H](CCCCN)C(=O)N[C@H](CCCNC(=N)N)C(=O)O [Chain307D] (H-[dR][dL][dK][dW][dF][dW][dL][dF][dR][dK][dR]-OH) | no (0)
CC(C)C[C@@H](NC(=O)[C@H](N)CCCNC(=N)N)C(=O)N[C@H](CCCCN)C(=O)N[C@H](Cc1c[nH]c2ccccc12)C(=O)N[C@H](Cc1ccccc1)C(=O)N[C@H](CC(C)C)C(=O)N[C@H](CC(C)C)C(=O)N[C@H](Cc1ccccc1)C(=O)N[C@H](CCCNC(=N)N)C(=O)N[C@H](CCCCN)C(=O)N[C@H](CCCNC(=N)N)C(=O)O [Chain308D] (H-[dR][dL][dK][dW][dF][dL][dL][dF][dR][dK][dR]-OH) | no (0)
CC(C)C[C@@H](NC(=O)[C@@H](Cc1c[nH]c2ccccc12)NC(=O)[C@@H](Cc1ccccc1)NC(=O)[C@@H](Cc1c[nH]c2ccccc12)NC(=O)[C@@H](CCCCN)NC(=O)[C@@H](CCCNC(=N)N)NC(=O)[C@H](N)Cc1c[nH]c2ccccc12)C(=O)N[C@H](Cc1ccccc1)C(=O)N[C@H](CCCCN)C(=O)N[C@H](CCCCN)C(=O)N[C@H](CCCNC(=N)N)C(=O)O [Chain309D] (H-[dW][dR][dK][dW][dF][dW][dL][dF][dK][dK][dR]-OH) | yes (1)

--- query ---
# bool: Minimum inhibitory concentration of CC[C@@H](C)[C@@H](N)C(=O)N[C@H](Cc1c[nH]c2ccccc12)C(=O)N[C@H](CCCCN)C(=O)N[C@H](CCCNC(=N)N)C(=O)N[C@H](Cc1ccccc1)C(=O)N[C@H](CCCNC(=N)N)C(=O)N[C@H](CC(C)C)C(=O)N[C@H](Cc1ccccc1)C(=O)N[C@H](CCCCN)C(=O)N[C@H](CCCCN)C(=O)N[C@H](Cc1c[nH]c2ccccc12)C(=O)O [Chain304D] (H-[dI][dW][dK][dR][dF][dR][dL][dF][dK][dK][dW]-OH) >= 8 yes (1)
